Origin of values: PubChem BioAssay AID1851

TEST_SYSTEM: Cytochrome P450 2C9 (Homo sapiens)
METHOD: Cytochrome panel assay with activity outcomes
RECORDED_CONDITIONS: recombinant CYP, pro-luciferin dealkylation, luminescence, p450-cyp2c9; series mostly up to 57.1 µM
The whole screen tested about 16,000 compounds, of which about 4,000 (25%) were called active. Roughly 26% stayed inconclusive and do not appear here. Calls come from the whole dose curve; as a rule, active = well fitted curve in the direction sought with a large enough effect; inconclusive = small, poorly fitted or top-dose-only effect, or effect the other way; inactive = no such curve, though single readings can be large or run the other way. Only a sample is shown.
Classes to choose from: active, inactive

These solved cases illustrate the format of a correct answer.
| COMPOUND | TEST_SYSTEM | CLASSIFICATION |
| --- | --- | --- |
| CCC(=O)O[C@@H]1[C@H](C)O[C@H](O[C@H]2[C@@H](N(C)C)[C@H](O)[C@@H](O[C@@H]3[C@@H](CC=O)C[C@@H](C)[C@@H](O)/C=C\C=C/C[C@@H](C)OC(=O)C[C@@H](OC(=O)CC)[C@H]3OC)O[C@H]2C)C[C@]1(C)O | Cytochrome P450 2C9 (Homo sapiens) | inactive |
| CN(C)c1ncc2nc(CCc3ccccc3)c(=O)n(CCc3ccccc3)c2n1 | Cytochrome P450 2C9 (Homo sapiens) | active |
| CN(C)c1ncc2ncc(=O)n(CCc3ccccc3)c2n1 | Cytochrome P450 2C9 (Homo sapiens) | active |

Problem: I would be grateful if you could indicate the recorded call for COc1ccc(CCNC(=O)Cn2cnc3c2c(=O)n(C)c(=O)n3C)cc1OC .
Solution: inactive

Problem: I would be grateful if you could indicate the recorded call for COCC(C)NCc1cccc(C)c1 (configuration not stated) .
Solution: inactive

Problem: I would be grateful if you could indicate the recorded call for COc1ccc(C(=O)c2ccc(OC)c(OC)c2)cc1OC .
Solution: active

Problem: I would be grateful if you could indicate the recorded call for C1COC(NC(C2CC2)C2CC2)=N1 .
Solution: inactive

Problem: I would be grateful if you could indicate the recorded call for CCN(CC)C(=O)c1ccc(O)c(OC)c1 .
Solution: inactive

Problem: I would be grateful if you could indicate the recorded call for CCC(=O)Nc1ccccc1C(=O)OCC(=O)c1ccccc1 .
Solution: active

Problem: I would be grateful if you could indicate the recorded call for CSC(=N)N .
Solution: inactive

Problem: I would be grateful if you could indicate the recorded call for Cc1c(NC(=O)C(C)N2C(=O)c3ccccc3C2=O)c(=O)n(-c2ccccc2)n1C (configuration not stated) .
Solution: inactive

Problem: I would be grateful if you could indicate the recorded call for COc1ccc(-c2nc3cnc(N(C)C)nc3n(CCc3ccccc3)c2=O)cc1 .
Solution: inactive

---

Kindly supply the reported activity, negative = inhibition values for the records listed here.
TEST_SYSTEM: Cytochrome P450 2C9 (Homo sapiens) (UniProt P11712)
Sequence (P11712 whole entry, looked up): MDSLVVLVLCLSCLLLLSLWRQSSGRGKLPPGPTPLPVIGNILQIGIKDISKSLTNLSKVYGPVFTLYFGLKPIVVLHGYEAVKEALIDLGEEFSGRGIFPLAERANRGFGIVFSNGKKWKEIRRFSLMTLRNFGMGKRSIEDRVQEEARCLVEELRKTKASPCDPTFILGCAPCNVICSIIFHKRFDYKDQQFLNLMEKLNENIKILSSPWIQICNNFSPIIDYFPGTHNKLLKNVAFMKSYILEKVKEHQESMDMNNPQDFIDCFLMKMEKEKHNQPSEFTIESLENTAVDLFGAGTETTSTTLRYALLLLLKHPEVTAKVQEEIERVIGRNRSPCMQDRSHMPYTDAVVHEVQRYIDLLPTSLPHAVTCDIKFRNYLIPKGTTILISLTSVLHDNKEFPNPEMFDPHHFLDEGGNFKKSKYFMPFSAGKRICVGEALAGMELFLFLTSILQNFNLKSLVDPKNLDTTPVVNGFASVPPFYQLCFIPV
METHOD: Cytochrome panel assay with activity outcomes; for activity, negative = inhibition: % is set by controls: 0 for no effect and ±100 for the full control effect
RECORDED_CONDITIONS: recombinant CYP, pro-luciferin dealkylation, luminescence, p450-cyp2c9; series mostly up to 57.1 µM
Among all 16,000 compounds or so, about 4,000 (25%) were called active. Roughly 26% stayed inconclusive and do not appear here. Not all results are given here.

| MOLECULE | TEST_SYSTEM | activity, negative = inhibition |
| --- | --- | --- |
| CO[C@H]1COC(=O)CCC[C@@H](C)[C@H](OC)COC(=O)[C@@H](C)NC(=O)C/C=C\[C@@H]1C | Cytochrome P450 2C9 (Homo sapiens) (UniProt P11712) | -11.7% [at 11.4 µM] (inactive) |
| Cc1ncc(CSC(=N)N)n1Cc1ccccc1 | Cytochrome P450 2C9 (Homo sapiens) (UniProt P11712) | -16.1% [at 11.4 µM] (inactive) |
| O=C(O)CCCc1ccc2ccc3ccccc3c2c1 | Cytochrome P450 2C9 (Homo sapiens) (UniProt P11712) | 17.3% [at 11.4 µM] (inactive) |
| CN(C)C(=O)c1ccc(-c2nccc(NCc3cccs3)n2)cc1 | Cytochrome P450 2C9 (Homo sapiens) (UniProt P11712) | 10.6% [at 2.29 µM] (inactive) |
| O=c1[nH]c(SCc2cccc([N+](=O)[O-])c2)nc2nc[nH]c12 | Cytochrome P450 2C9 (Homo sapiens) (UniProt P11712) | 4.13% [at 11.4 µM] (inactive) |

For each listed entry, give its activity, negative = inhibition.
1. CN(C)c1ccc(-c2cncnc2NCc2cccs2)cc1
2. C[N+](C)(N)CCC[N+](C)(C)N

Solution:
1: -23.6% [at 2.29 µM] (inactive); 2: 15.9% [at 11.4 µM] (inactive)

For each listed entry, give its activity, negative = inhibition.
1. Clc1ccc2c(NC3CCC(N4CCCCC4)CC3)ccnc2c1 (stereo unspecified)
2. Cc1noc(C)c1-c1nc(N2CCN(C)CC2)c2ccccc2n1
3. COCCNc1ncnc2ccc(-c3ccccc3C(F)(F)F)cc12

Solution:
10.6% [at 11.4 µM] (inactive)
1.84% [at 2.29 µM] (inactive)
11% [at 2.29 µM] (inactive)

Problem: Read the entry CC1=NN(c2ccc(S(=O)(=O)O)cc2)C(=O)/C1=C\c1ccc(Cl)cc1 and write its reported activity, negative = inhibition.
Solution: -2.05% [at 11.4 µM] (inactive)
